// values below are reported inhibition at 10 µM
# System: NCI/ADR-RES
# assay.comment: NCI 60 cell line single dose screen (SRB)
# Format: cell-based
# test.context: Homo sapiens; NCI/ADR-RES (ovarian cancer), single dose 10^−5 M, 48 h; read-out: Growth inhibition percentage
Enter the number, and then the unit.

1) Cc1nn(-c2ccc(F)cc2)c2ncnc(Nc3ccc(F)c(Cl)c3)c12
5.13%
2) Cc1nn(-c2ccc(F)cc2)c2ncnc(Cl)c12
-8.11%
3) Cc1nn(-c2ccc(F)cc2)c2ncnc(N3CCOCC3)c12
-6.35%
4) Cc1ccc(Nc2ncnc3c2c(C)nn3-c2ccc(F)cc2)cc1
-6.46%
5) COc1cc(C=NNc2ncnc3c2c(C)nn3-c2ccc(F)cc2)ccc1O [Compound 10b]
4.3%

Query string: Reported inhibition at 10 µM, compound COc1ccc(N2CCN(c3ncnc4c3c(C)nn4-c3ccc(F)cc3)CC2)cc1 : ____
Result string: -3.7%

Query string: Entry under review: Cc1nn(-c2ccc(F)cc2)c2nc(N)nc(N)c12 . Reported inhibition at 10 µM?
Result string: -3.45%

Query string: So what's the measured inhibition at 10 µM for this one? COc1cc(C=NNc2ncnc3c2c(C)nn3-c2ccc(F)cc2)cc(OC)c1OC [Compound 10c]
Result string: -2.25%

Query string: Query: inhibition at 10 µM; subject: Cc1nn(-c2ccc(F)cc2)c2ncnc(NN)c12
Result string: 3.79%

Query string: Using the record for Cc1nn(-c2ccc(F)cc2)c2nc[nH]c(=O)c12 , report its inhibition at 10 µM.
Result string: -1.22%

Query string: inhibition at 10 µM for Cc1nn(-c2ccc(F)cc2)c2ncnc(N)c12 ?
Result string: 0.66%

Query string: Entry Cc1nn(-c2ccc(F)cc2)c2ncnc(N3CCN(c4ccc(Cl)cc4)CC3)c12 has what inhibition at 10 µM?
Result string: 6.62%

====

# Tested on: HS 578T
# assay.comment: NCI 60 cell line single dose screen (SRB)
# Assay type: cell-based
# test.context: Homo sapiens; HS 578T (breast cancer), single dose 10^−5 M, 48 h; read-out: Growth inhibition percentage
Here the recorded inhibition at 10 µM is given for each entry.
Just the number in %, nothing appended.

Example results:
1) Cc1nn(-c2ccc(F)cc2)c2ncnc(Cl)c12
4.54
2) Cc1nn(-c2ccc(F)cc2)c2ncnc(N)c12
-4.94
3) COc1cc(C=NNc2ncnc3c2c(C)nn3-c2ccc(F)cc2)ccc1O [Compound 10b]
0.89
4) Cc1nn(-c2ccc(F)cc2)c2nc[nH]c(=O)c12
0.13
5) COc1ccc(N2CCN(c3ncnc4c3c(C)nn4-c3ccc(F)cc3)CC2)cc1
5.99
6) Cc1nn(-c2ccc(F)cc2)c2ncnc(N3CCN(c4ccc(Cl)cc4)CC3)c12
3.74
7) Cc1nn(-c2ccc(F)cc2)c2nc(N)nc(N)c12
-3.27
8) Cc1nn(-c2ccc(F)cc2)c2ncnc(Nc3ccc(F)c(Cl)c3)c12
21.5

Query string: Report inhibition at 10 µM for Cc1ccc(Nc2ncnc3c2c(C)nn3-c2ccc(F)cc2)cc1 please.
Result string: 0.7

====

# System: PC-3
# assay.comment: NCI 60 cell line single dose screen (SRB)
# Assay type: cell-based
# test.context: Homo sapiens; PC-3 (prostate cancer), single dose 10^−5 M, 48 h; read-out: Growth inhibition percentage
A collection of compounds and their measured inhibition at 10 µM
Numeric answer only, unit % assumed.

For orientation, consider the following solved cases.
1. Cc1nn(-c2ccc(F)cc2)c2ncnc(NN)c12
13.8
2. COc1cc(C=NNc2ncnc3c2c(C)nn3-c2ccc(F)cc2)cc(OC)c1OC [Compound 10c]
16.5
3. Cc1nn(-c2ccc(F)cc2)c2nc(N)nc(N)c12
3.59
4. Cc1nn(-c2ccc(F)cc2)c2ncnc(N3CCOCC3)c12
5.06

Query string: Consider the compound shown here: Cc1nn(-c2ccc(F)cc2)c2nc[nH]c(=O)c12 What is its recorded inhibition at 10 µM?
Result string: 1.46

====

# Test system: RPMI-8226
# assay.comment: NCI 60 cell line single dose screen (SRB)
# Format: cell-based
# test.context: Homo sapiens; RPMI-8226 (leukemia), single dose 10^−5 M, 48 h; read-out: Growth inhibition percentage
inhibition at 10 µM for assorted molecules
Please respond with the number in % and leave the unit unwritten.

1. Cc1nn(-c2ccc(F)cc2)c2ncnc(Nc3ccc(F)c(Cl)c3)c12
9.77
2. Cc1nn(-c2ccc(F)cc2)c2ncnc(N3CCOCC3)c12
2
3. Cc1nn(-c2ccc(F)cc2)c2ncnc(N)c12
-17.5
4. Cc1nn(-c2ccc(F)cc2)c2nc[nH]c(=O)c12
-10.2

Query string: Reported inhibition at 10 µM, molecule COc1cc(C=NNc2ncnc3c2c(C)nn3-c2ccc(F)cc2)ccc1O [Compound 10b] : ____
Result string: 7.52

====

# Test system: HOP-92
# assay.comment: NCI 60 cell line single dose screen (SRB)
# Type: cell-based
# test.context: Homo sapiens; HOP-92 (non-small cell lung cancer), single dose 10^−5 M, 48 h; read-out: Growth inhibition percentage
inhibition at 10 µM below 10% gives False; inhibition at 10 µM at or above it gives True.

Example entries begin here.
1. Cc1ccc(Nc2ncnc3c2c(C)nn3-c2ccc(F)cc2)cc1
False
2. Cc1nn(-c2ccc(F)cc2)c2ncnc(N3CCOCC3)c12
False
3. Cc1nn(-c2ccc(F)cc2)c2ncnc(N3CCN(c4ccc(Cl)cc4)CC3)c12
True
4. COc1cc(C=NNc2ncnc3c2c(C)nn3-c2ccc(F)cc2)cc(OC)c1OC [Compound 10c]
True
5. Cc1nn(-c2ccc(F)cc2)c2ncnc(NN)c12
True
6. COc1ccc(N2CCN(c3ncnc4c3c(C)nn4-c3ccc(F)cc3)CC2)cc1
False

Please turn your attention to the following entry.
Query string: Is inhibition at 10 µM for Cc1nn(-c2ccc(F)cc2)c2ncnc(N)c12 at or above 10%?
Result string: False

====

# Test system: NCI-H23
# assay.comment: NCI 60 cell line single dose screen (SRB)
# Assay type: cell-based
# test.context: Homo sapiens; NCI-H23 (non-small cell lung cancer), single dose 10^−5 M, 48 h; read-out: Growth inhibition percentage
endpoint: inhibition at 10 µM (%)
Please respond with the number in % and leave the unit unwritten.

Worked examples follow.
1) Cc1nn(-c2ccc(F)cc2)c2ncnc(N)c12 [Compound 4]
4.73
2) Cc1nn(-c2ccc(F)cc2)c2nc(N)nc(N)c12 [Compound 5]
11.8

As a next step, examine the compound that follows.
Query string: GET /values?readout=inhibition at 10 µM&system=NCI-H23&item= Cc1nn(-c2ccc(F)cc2)c2ncnc(Cl)c12 [Compound 6]
Result string: 7.86

====

Recorded measurements of inhibition at 10 µM, one per entry
# System: SK-MEL-28
# assay.comment: NCI 60 cell line single dose screen (SRB)
# Assay type: cell-based
# test.context: Homo sapiens; SK-MEL-28 (melanoma), single dose 10^−5 M, 48 h; read-out: Growth inhibition percentage
I only need the number, in %, no unit after it.

1. Cc1nn(-c2ccc(F)cc2)c2ncnc(Nc3ccc(F)c(Cl)c3)c12
-4.63

Below: the item to evaluate.
Query string: Look up inhibition at 10 µM: Cc1nn(-c2ccc(F)cc2)c2ncnc(NN)c12
Result string: 2.1

====

# Test system: SK-MEL-28
# assay.comment: NCI 60 cell line single dose screen (SRB)
# Type: cell-based
# test.context: Homo sapiens; SK-MEL-28 (melanoma), single dose 10^−5 M, 48 h; read-out: Growth inhibition percentage
Entries and their measured inhibition at 10 µM follow.

In the examples that follow, each entry is paired with its recorded inhibition at 10 µM.
1. Cc1nn(-c2ccc(F)cc2)c2nc(N)nc(N)c12
-4.89%
2. Cc1nn(-c2ccc(F)cc2)c2ncnc(N)c12
-3.55%

Attention now shifts to the item below.
Query string: Look at this compound and give its reported inhibition at 10 µM. Cc1ccc(Nc2ncnc3c2c(C)nn3-c2ccc(F)cc2)cc1
Result string: -11.1%

====

# Tested on: OVCAR-3
# assay.comment: NCI 60 cell line single dose screen (SRB)
# Format: cell-based
# test.context: Homo sapiens; OVCAR-3 (ovarian cancer), single dose 10^−5 M, 48 h; read-out: Growth inhibition percentage
endpoint: inhibition at 10 µM (%)
# output: bare number, implied unit %

1) COc1cc(C=NNc2ncnc3c2c(C)nn3-c2ccc(F)cc2)ccc1O [Compound 10b]
24.2
2) Cc1ccc(Nc2ncnc3c2c(C)nn3-c2ccc(F)cc2)cc1 [Compound 7c]
-6.58
3) Cc1nn(-c2ccc(F)cc2)c2ncnc(Nc3ccc(F)c(Cl)c3)c12 [Compound 7d]
9.57
4) Cc1nn(-c2ccc(F)cc2)c2nc[nH]c(=O)c12 [Compound 3]
-5.82
5) Cc1nn(-c2ccc(F)cc2)c2ncnc(NN)c12 [Compound 9]
32.2
6) Cc1nn(-c2ccc(F)cc2)c2ncnc(Cl)c12 [Compound 6]
-8.39

The record that follows has no inhibition at 10 µM shown yet.
Query string: Suppose we examine the compound Cc1nn(-c2ccc(F)cc2)c2ncnc(N3CCOCC3)c12 [Compound 8a] ; what inhibition at 10 µM value has been reported?
Result string: -5.65
